Molecular target: HLA-A*0201 (human)
Assay: competition with 125I-labelled standard peptide for purified HLA, gel filtration
MEASURED ENDPOINT: binding affinity ratio (IC50 of the standard peptide / IC50 of the test peptide)
Reply: number alone, nothing else.

// below: answered binders
YARTEDFFKL (modifications not checked) [PSM 179 peptide …] | 0.0002
YASGWGSI (modifications not checked) [PSA 149 peptide YASGWGSI] | -0.0001
YIRKRYRKFL (modifications not checked) [PAP 84 peptide …] | 0.0002
YASGWGSI (modifications not checked) [Kallikrein 153 peptide YASGWGSI] | -0.0001
YTKVVHYRKWI (modifications not checked) [Kallikrein 243 peptide …] | 0.0001

*Q* Which measured binding affinity ratio (IC50 of the standard peptide / IC50 of the test peptide) value corresponds to YTKVVHYRKWI (modifications not checked) [PSA 239 peptide …] ?
*A* 0.0001
